# Tested on: Fibroblast
# experiment-summary: Multiplex assay against human fibroblast
# Format: toxicity, cell-based
# protocol-conditions: 24 h, 10 µM, compound concentration 10 uM, replicate 1
Listing of recorded Population Tubulin-Different-Phenotype (%) by entry.
Write the figure, then the unit, nothing else.

These solved cases illustrate the format of a correct answer.
CN1CCCC(n2nc(Cc3ccc(Cl)cc3)c3ccccc3c2=O)CC1.Cl (stereo not given) [AZELASTINE HYDROCHLORIDE] = 90%
Cc1nc(Nc2n[nH]c3c2CN(C(=O)N[C@H](CN(C)C)c2ccccc2)C3(C)C)c2sccc2n1 [PF-03758309] = 40%
COc1cccc([C@@H](C)NCCCc2ccccc2Cl)c1.Cl [TECALCET HYDROCHLORIDE] = 75%
CN1CCC[C@@H]1CCO[C@](C)(c1ccccc1)c1ccc(Cl)cc1.O=C(O)/C=C/C(=O)O [CLEMASTINE FUMARATE] = 85%

For the next question, use this molecule.
In plain terms, Cc1c(-c2ccc(O)cc2)n(Cc2ccc(OCCN3CCCCCC3)cc2)c2ccc(O)cc12 [BAZEDOXIFENE] has a documented Population Tubulin-Different-Phenotype (%) of 84%
